Source listed as patent US20190359687A1.

# Target: T1, human glycophorin A on human red blood cells or red blood cell membranes (human, UniProt P02724 20-150)
# T1 construct: whole, on cells; also called hRBC; human RBC membranes
# T1 sequence (looked up): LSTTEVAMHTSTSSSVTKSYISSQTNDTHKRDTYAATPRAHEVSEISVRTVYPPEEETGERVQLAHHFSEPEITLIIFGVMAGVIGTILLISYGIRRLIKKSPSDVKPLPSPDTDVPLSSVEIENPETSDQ
# Assay overview: ELISA, Fab on coated human RBC membranes
Measurement label: binding in ELISA relative to parental Fab

Record excerpt, results attached:
binder="TPP-5841, Hu6C12-24 Fab variant VL: (S24R, A26S, S49A, P54Q, F95Y); VH: (D66G, L70M) (Fab, V domains shown, Built on the parental Fab TPP-4935) VH: EVQLVQSGAEVKKPGASVKVSCKASGYTFTTYTIHWVRQAPGQGLEWIGYINPSSDYTRYNPKFKGRVTMTTDKSTSTAYMELRSLRSDDTAVYYCQTGTRDYWGQGTTVTVSS VL: DIQLTQSPSFLSASVGDRVTITCRASSSVSYIYWFQQKPGKAPKLLIYATSTLQSGVPSRFSGSGSGTEYTLTISSLQPEDFATYYCHQRNSFPYTFGQGTKLEIKR" result_value="11.9 relative to parental Fab"
binder="TPP-5674, Hu6C12-24 Fab variant VH: (I48M, L70M) (Fab, V domains shown, Built on the parental Fab TPP-4935) VH: EVQLVQSGAEVKKPGASVKVSCKASGYTFTTYTIHWVRQAPGQGLEWMGYINPSSDYTRYNPKFKDRVTMTTDKSTSTAYMELRSLRSDDTAVYYCQTGTRDYWGQGTTVTVSS VL: DIQLTQSPSFLSASVGDRVTITCSAASSVSYIYWFQQKPGKAPKLLIYSTSTLPSGVPSRFSGSGSGTEYTLTISSLQPEDFATYYCHQRNSFPFTFGQGTKLEIKR" result_value="0.7 relative to parental Fab"
binder="TPP-5701, Hu6C12-24 Fab variant VL: (S49A, P54Q, F95Y) (Fab, V domains shown, Built on the parental Fab TPP-4935) VH: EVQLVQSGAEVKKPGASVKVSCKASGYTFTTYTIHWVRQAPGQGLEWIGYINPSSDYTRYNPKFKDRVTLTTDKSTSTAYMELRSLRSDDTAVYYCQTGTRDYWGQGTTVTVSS VL: DIQLTQSPSFLSASVGDRVTITCSAASSVSYIYWFQQKPGKAPKLLIYATSTLQSGVPSRFSGSGSGTEYTLTISSLQPEDFATYYCHQRNSFPYTFGQGTKLEIKR" result_value="4.7 relative to parental Fab"
binder="TPP-5704, Hu6C12-24 Fab variant VL: (N91D) (Fab, V domains shown, Built on the parental Fab TPP-4935) VH: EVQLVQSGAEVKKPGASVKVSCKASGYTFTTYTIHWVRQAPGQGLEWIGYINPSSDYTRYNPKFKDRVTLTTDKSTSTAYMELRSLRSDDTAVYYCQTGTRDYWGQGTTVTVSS VL: DIQLTQSPSFLSASVGDRVTITCSAASSVSYIYWFQQKPGKAPKLLIYSTSTLPSGVPSRFSGSGSGTEYTLTISSLQPEDFATYYCHQRDSFPFTFGQGTKLEIKR" result_value="0.9 relative to parental Fab"

Query: Quick one: give measured binding in ELISA relative to parental Fab for TPP-5337, Hu6C12-24 Fab variant VH: (Q97A, T98R) (Fab, V domains shown, Built on the parental Fab TPP-4935) VH: EVQLVQSGAEVKKPGASVKVSCKASGYTFTTYTIHWVRQAPGQGLEWIGYINPSSDYTRYNPKFKDRVTLTTDKSTSTAYMELRSLRSDDTAVYYCARGTRDYWGQGTTVTVSS VL: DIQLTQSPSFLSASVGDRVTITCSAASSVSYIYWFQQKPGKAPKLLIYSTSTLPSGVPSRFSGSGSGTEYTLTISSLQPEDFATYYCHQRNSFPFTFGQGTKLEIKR
Response: 0.3 relative to parental Fab
